# testedTarget: α2-ARs
# assayText: Radioligand binding, displacement of [3H]-Clonidine from α2-ARs on rat cerebral cortex
# testSettings: ± SEM, two independent experiments
pKi: −log10 of the molar value.
readoutName: pKi

Here is how some compounds turned out for pKi.
{"lineNotation": "COc1ccc(Cl)cc1S(=O)(=O)NCC1CCN(CCOc2ccccc2OCC(F)(F)F)CC1", "testedTarget": "α2-ARs", "pKi": 5.96}
{"lineNotation": "COc1ccc(S(=O)(=O)NCC2CCN(CCOc3ccccc3OCC(F)(F)F)CC2)cc1OC", "testedTarget": "α2-ARs", "pKi": 6.28}
{"lineNotation": "O=S(=O)(NCC1CCN(CCOc2ccccc2OCC(F)(F)F)CC1)c1cc(Cl)ccc1F", "testedTarget": "α2-ARs", "pKi": 6.24}
{"lineNotation": "O=S(=O)(NCC1CCN(CCOc2ccccc2OCC(F)(F)F)CC1)c1cccc(Cl)c1F", "testedTarget": "α2-ARs", "pKi": 6.07}

[A] COc1ccc(S(=O)(=O)N[C@@H]2CCN(CCOc3ccccc3OCC(F)(F)F)C2)cc1OC
[B] O=S(=O)(NCC1CCN(CCOc2ccccc2OCC(F)(F)F)CC1)c1ccc(F)cc1
[C] O=S(=O)(N[C@H]1CCN(CCOc2ccccc2OCC(F)(F)F)C1)c1cc(Cl)ccc1F
*Q* Let's sort these by pKi, smallest first. Go ahead? # answer = labels listed in requested order
*A* C, B, A
